Tested on: E. coli DH5α cells
Test: Inhibition of bacterial cell growth by CPPs (Max OD600 relative to control)
Type: cell-based, Escherichia coli
Details: E. coli DH5α diluted 1/1000 in LB, 5 μg TAMRA-CPP (0.1 μg/μL), OD600 monitored 18 h; max OD of treated cells / max OD of control cells; replicate 1
Where no end group is shown, it is not given here.
Exam item: assign condition met to entries whose Max OD (%) (Figure 3f) is below 70% and condition not met to entries at or above 70%. Note that a value of exactly 70% receives condition not met.

Please indicate whether the reported Max OD (%) (Figure 3f) of Tat49-57 (RKKRRQRRR; also: TAMRA label, site not given here) [CPP 45, TAMRA-labeled CPP of the 98-CPP library] is strictly below 70%.
condition not met

Please indicate whether the reported Max OD (%) (Figure 3f) of CTP (GGRRARRRRRR; also: TAMRA label, site not given here) [CPP 96, TAMRA-labeled CPP of the 98-CPP library] is strictly below 70%.
condition not met

Please indicate whether the reported Max OD (%) (Figure 3f) of Tat (GRKKRRQRRRPPQRKC; also: TAMRA label, site not given here) [CPP 67, TAMRA-labeled CPP of the 98-CPP library] is strictly below 70%.
condition met

Please indicate whether the reported Max OD (%) (Figure 3f) of TatsMTS (TMG) (GRKKRRQRRRMVSAL; also: TAMRA label, site not given here) [CPP 71, TAMRA-labeled CPP of the 98-CPP library] is strictly below 70%.
condition not met

Please indicate whether the reported Max OD (%) (Figure 3f) of Rev(34-50) (TRQARRNRRRRWRERQR; also: TAMRA label, site not given here) [CPP 15, TAMRA-labeled CPP of the 98-CPP library, one of five used to evaluate delivery methods] is strictly below 70%.
condition not met
